Tested on: firefly luciferase
Experiment: In vivo firefly luciferase expression after intravenous injection of fLuc mRNA delivery vehicles (IVIS imaging)
Parameters: species or system female Balb/c mice
Settings: formulation recipe D22; fLuc mRNA, intravenous, Balb/c mice
Starred links: 1 amine or outer side, 2 acyl side, 3 side chain; linkers in the order of their positions; H or OH if unused. Non-standard residues stand in square brackets, D forms with d. Residues, ends and D or L forms follow the SMILES beside them. *: point of attachment. Gly(N-(3-decanoyloxypropyl)) = CCCCCCCCCC(=O)OCCCNCC(=O)O; N(3-lauroyloxypropyl)Gly = CCCCCCCCCCCC(=O)OCCCNCC(=O)O; N(2-decanoyloxyethyl)Gly = CCCCCCCCCC(=O)OCCNCC(=O)O; Gly(N-(CH2)3O-octanoyl) = CCCCCCCC(=O)OCCCNCC(=O)O; N(3-imidazol-1-ylpropyl)Gly = O=C(O)CNCCCn1ccnc1; Gly(N-3-morpholinopropyl) = O=C(O)CNCCCN1CCOCC1; N(2-ethylhexyl)Gly = CCCCC(CC)CNCC(=O)O; X1 = CCCCC(CC)CSSCCN(CC(=O)[*:2])[*:1]; N(CH(CH2OH)2)Gly = O=C(O)CNC(CO)CO; N(octyl)Gly = CCCCCCCCNCC(=O)O; For = O=C*
observable: Total Flux (luciferase expression) (p/s)
Answer format: numeric, p/s implied, no suffix.

# input Request the reported Total Flux (luciferase expression) associated with CCCCCCCCCCCC(=O)OCCCN(CC(=O)N(CC(=O)N(CCCn1ccnc1)CC(=O)N(CC(=O)N(CCCOC(=O)CCCCCCCCCCC)CC(=O)N(CC(N)=O)CC(CC)CCCC)CC(CC)CCCC)CC(CC)CCCC)C(=O)CN(C=O)CC(CC)CCCC (centres unmarked) [Compound 82] (For-[N(2-ethylhexyl)Gly][N(3-lauroyloxypropyl)Gly][N(2-ethylhexyl)Gly][N(3-imidazol-1-ylpropyl)Gly][N(2-ethylhexyl)Gly][N(3-lauroyloxypropyl)Gly][N(2-ethylhexyl)Gly]-NH2)
# output 2.62E+09

# input Now give it for CCCCCCCCCC(=O)OCCN(CC(N)=O)C(=O)CN(CCOC(=O)CCCCCCCCC)C(=O)CN(CC(CC)CCCC)C(=O)CN(CCOC(=O)CCCCCCCCC)C(=O)CN(CCOC(=O)CCCCCCCCC)C(=O)CN(CC(CC)CCCC)C(=O)CNC(CO)CO (centres unmarked) [Compound 105] (H-[N(CH(CH2OH)2)Gly][N(2-ethylhexyl)Gly][N(2-decanoyloxyethyl)Gly][N(2-decanoyloxyethyl)Gly][N(2-ethylhexyl)Gly][N(2-decanoyloxyethyl)Gly][N(2-decanoyloxyethyl)Gly]-NH2) too.
# output 1.05E+10

# input Repeat with CCCCCCCCCC(=O)OCCCN(CC(=O)N(CC(N)=O)CC(CC)CCCC)C(=O)CN(CCCCCCCC)C(=O)CN(CC(CC)CCCC)C(=O)CN(CCCOC(=O)CCCCCCCCC)C(=O)CN(CCCCCCCC)C(=O)CNC(CO)CO (centres unmarked) [Compound 32] (H-[N(CH(CH2OH)2)Gly][N(octyl)Gly][Gly(N-(3-decanoyloxypropyl))][N(2-ethylhexyl)Gly][N(octyl)Gly][Gly(N-(3-decanoyloxypropyl))][N(2-ethylhexyl)Gly]-NH2)
# output 7.45E+09

# input And then CCCCCCCCCCCC(=O)OCCCN(CC(=O)N(CC(=O)N(CCCN1CCOCC1)CC(=O)N(CC(=O)N(CCCOC(=O)CCCCCCCCCCC)CC(=O)N(CC(N)=O)CC(CC)CCCC)CC(CC)CCCC)CC(CC)CCCC)C(=O)CN(C=O)CC(CC)CCCC (centres unmarked) [Compound 80] (For-[N(2-ethylhexyl)Gly][N(3-lauroyloxypropyl)Gly][N(2-ethylhexyl)Gly][Gly(N-3-morpholinopropyl)][N(2-ethylhexyl)Gly][N(3-lauroyloxypropyl)Gly][N(2-ethylhexyl)Gly]-NH2) , what is it?
# output 3.74E+09

# input Now give it for CCCCCCCC(=O)OCCCN(CC(=O)N(CCCOC(=O)CCCCCCC)CC(=O)N(CCSSCC(CC)CCCC)CC(=O)N(CCCOC(=O)CCCCCCC)CC(=O)N(CCCOC(=O)CCCCCCC)CC(=O)N(CCSSCC(CC)CCCC)CC(N)=O)C(=O)CNC(CO)CO (centres unmarked) [Compound 128] (H-[N(CH(CH2OH)2)Gly][Gly(N-(CH2)3O-octanoyl)][Gly(N-(CH2)3O-octanoyl)][X1][Gly(N-(CH2)3O-octanoyl)][Gly(N-(CH2)3O-octanoyl)][X1]-NH2) too.
# output 4.01E+09

###

Parameter % of injected dose remaining in liver: see the listing below.
Assay: Peptoid quantity remaining in liver by HPLC-TOF mass spectrometry; further: time not given here
Assay type: in vivo
Conditions: liver homogenate
Non-standard residues stand in square brackets, D forms with d. Residues, ends and D or L forms follow the SMILES beside them. *: point of attachment. Gly(N-(3-decanoyloxypropyl)) = CCCCCCCCCC(=O)OCCCNCC(=O)O; N(3-lauroyloxypropyl)Gly = CCCCCCCCCCCC(=O)OCCCNCC(=O)O; N(2-decanoyloxyethyl)Gly = CCCCCCCCCC(=O)OCCNCC(=O)O; N(3-imidazol-1-ylpropyl)Gly = O=C(O)CNCCCn1ccnc1; Gly(N-3-morpholinopropyl) = O=C(O)CNCCCN1CCOCC1; N(2-ethylhexyl)Gly = CCCCC(CC)CNCC(=O)O; Gly(N-dodecyl) = CCCCCCCCCCCCNCC(=O)O; N(CH(CH2OH)2)Gly = O=C(O)CNC(CO)CO; NDecylGly = CCCCCCCCCCNCC(=O)O; NHexGly = CCCCCCNCC(=O)O; For = O=C*
Note: unit % is implicit; provide only the numeric part.

{"columns": ["compound", "unit-text", "% of injected dose remaining in liver"],
 "data": [
  ["CCCCCCCCCC(=O)OCCCN(CC(N)=O)C(=O)CN(CC(CC)CCCC)C(=O)CN(CCCOC(=O)CCCCCCCCC)C(=O)CN(CCCOC(=O)CCCCCCCCC)C(=O)CN(CC(CC)CCCC)C(=O)CN(CCCOC(=O)CCCCCCCCC)C(=O)CNC(CO)CO (stereo not drawn) [Compound 53] (H-[N(CH(CH2OH)2)Gly][Gly(N-(3-decanoyloxypropyl))][N(2-ethylhexyl)Gly][Gly(N-(3-decanoyloxypropyl))][Gly(N-(3-decanoyloxypropyl))][N(2-ethylhexyl)Gly][Gly(N-(3-decanoyloxypropyl))]-NH2)", "%", 0.13]
]}

# input Looking for the measured % of injected dose remaining in liver of CCCCCCCCCC(=O)OCCCN(C=O)CC(=O)N(CCCOC(=O)CCCCCCCCC)CC(=O)N(CC(=O)N(CCCN1CCOCC1)CC(=O)N(CCCOC(=O)CCCCCCCCC)CC(=O)N(CCCOC(=O)CCCCCCCCC)CC(=O)N(CC(N)=O)CC(CC)CCCC)CC(CC)CCCC (stereo not drawn) [Compound 112] (For-[Gly(N-(3-decanoyloxypropyl))][Gly(N-(3-decanoyloxypropyl))][N(2-ethylhexyl)Gly][Gly(N-3-morpholinopropyl)][Gly(N-(3-decanoyloxypropyl))][Gly(N-(3-decanoyloxypropyl))][N(2-ethylhexyl)Gly]-NH2) , can you help?
# output 0.19

# input Also, CCCCCCCCCCCCN(C=O)CC(=O)N(CCCOC(=O)CCCCCCCCC)CC(=O)N(CC(=O)N(CCCN1CCOCC1)CC(=O)N(CC(=O)N(CCCOC(=O)CCCCCCCCC)CC(=O)N(CCCCCCCCCCCC)CC(N)=O)CC(CC)CCCC)CC(CC)CCCC (stereo not drawn) [Compound 88] (For-[Gly(N-dodecyl)][Gly(N-(3-decanoyloxypropyl))][N(2-ethylhexyl)Gly][Gly(N-3-morpholinopropyl)][N(2-ethylhexyl)Gly][Gly(N-(3-decanoyloxypropyl))][Gly(N-dodecyl)]-NH2) please.
# output 16.59

# input And what about the compound CCCCCCCCCCCC(=O)OCCCN(CC(N)=O)C(=O)CN(CC(CC)CCCC)C(=O)CN(CCCCCCCCCC)C(=O)CN(CC(CC)CCCC)C(=O)CN(CCCOC(=O)CCCCCCCCCCC)C(=O)CN(CC(CC)CCCC)C(=O)CNC(CO)CO (stereo not drawn) [Compound 59] (H-[N(CH(CH2OH)2)Gly][N(2-ethylhexyl)Gly][N(3-lauroyloxypropyl)Gly][N(2-ethylhexyl)Gly][NDecylGly][N(2-ethylhexyl)Gly][N(3-lauroyloxypropyl)Gly]-NH2) ?
# output −1.85

# input Okay, and CCCCCCCCCC(=O)OCCCN(CC(=O)N(CC(=O)N(CC(=O)N(CCCOC(=O)CCCCCCCCC)CC(=O)N(CC(N)=O)CC(CC)CCCC)CC(CC)CCCC)CC(CC)CCCC)C(=O)CN(CC(CC)CCCC)C(=O)CN(C=O)CCCN1CCOCC1 (stereo not drawn) [Compound 106] (For-[Gly(N-3-morpholinopropyl)][N(2-ethylhexyl)Gly][Gly(N-(3-decanoyloxypropyl))][N(2-ethylhexyl)Gly][N(2-ethylhexyl)Gly][Gly(N-(3-decanoyloxypropyl))][N(2-ethylhexyl)Gly]-NH2) ?
# output 5.86

# input Field entry: CCCCCCCCCC(=O)OCCN(CC(=O)N(CCOC(=O)CCCCCCCCC)CC(=O)N(CC(=O)N(CCOC(=O)CCCCCCCCC)CC(=O)N(CCOC(=O)CCCCCCCCC)CC(=O)N(CC(N)=O)CC(CC)CCCC)CC(CC)CCCC)C(=O)CNCCCn1ccnc1 (stereo not drawn) [Compound 79] (H-[N(3-imidazol-1-ylpropyl)Gly][N(2-decanoyloxyethyl)Gly][N(2-decanoyloxyethyl)Gly][N(2-ethylhexyl)Gly][N(2-decanoyloxyethyl)Gly][N(2-decanoyloxyethyl)Gly][N(2-ethylhexyl)Gly]-NH2)
# output 19.72

# input And CCCCCCCCCCCC(=O)OCCCN(CC(=O)N(CC(=O)N(CC(=O)N(CCCOC(=O)CCCCCCCCCCC)CC(=O)N(CC(N)=O)CC(CC)CCCC)CC(CC)CCCC)CC(CC)CCCC)C(=O)CN(CC(CC)CCCC)C(=O)CN(C=O)CCCN1CCOCC1 (stereo not drawn) [Compound 64] (For-[Gly(N-3-morpholinopropyl)][N(2-ethylhexyl)Gly][N(3-lauroyloxypropyl)Gly][N(2-ethylhexyl)Gly][N(2-ethylhexyl)Gly][N(3-lauroyloxypropyl)Gly][N(2-ethylhexyl)Gly]-NH2) ?
# output 5.30

# input Please answer likewise for CCCCCCCCCCCC(=O)OCCCN(CC(=O)N(CC(=O)N(CC(=O)N(CCCn1ccnc1)CC(=O)N(CC(=O)N(CC(=O)N(CCCOC(=O)CCCCCCCCCCC)CC(=O)N(CC(N)=O)CC(CC)CCCC)Cc1ccco1)CC(CC)CCCC)CC(CC)CCCC)Cc1ccco1)C(=O)CN(C=O)CC(CC)CCCC (stereo not drawn)
# output 19.76

# input # repeat for CCCCCCCCCCCC(=O)OCCCN(CC(=O)N(CC(N)=O)CC(CC)CCCC)C(=O)CN(CCCCCC)C(=O)CN(CC(CC)CCCC)C(=O)CN(CCCOC(=O)CCCCCCCCCCC)C(=O)CN(CCCCCC)C(=O)CNC(CO)CO (stereo not drawn) [Compound 54] (H-[N(CH(CH2OH)2)Gly][NHexGly][N(3-lauroyloxypropyl)Gly][N(2-ethylhexyl)Gly][NHexGly][N(3-lauroyloxypropyl)Gly][N(2-ethylhexyl)Gly]-NH2)
# output 8.64
